Reference for the values: PubChem BioAssay

- Method Notes: HepG2 cell viability effects, profiling panel, calcein-AM fluorescence, 48 h, basal (AID 1164); further: test concentration not given here
- Particulars: higher = more signal
z-score for assorted compounds
Form rule: numeric answer, no unit written next to it.

# example entries with known answers
{"columns": ["Input Smiles", "z-score"],
 "data": [
  ["C=CC[C@@H]1C=C[C@H](Oc2ccc(C)cc2)[C@@H](COC(=O)NCc2cccc3ccccc23)O1", -0.542],
  ["O=C1C[C@@H](O)[C@@H](O)[C@@H]2[C@@H]3C(=O)N(Cc4ccccc4)C(=O)[C@@H]3CC[C@H]12", 0.175],
  ["C[C@H]1CC[C@@H](C(=O)O)N[C@@H]1c1cccc(N2CCCC2=O)c1", 0.652]
]}

Please report the recorded z-score for COc1ccc(O[C@H]2C=C[C@@H](c3ccccc3)O[C@@H]2COC(=O)NCc2cccc3ccccc23)cc1 . -0.833
